Where these numbers come from: patent US7371536B2

# Target: rat SVCT2 (Rattus norvegicus, UniProt Q9WTW8)
# Construct: expressed in transfected cells; host or cells: Xenopus laevis oocytes injected with cRNA (vector pTLN2)
# Sequence (Q9WTW8 whole entry): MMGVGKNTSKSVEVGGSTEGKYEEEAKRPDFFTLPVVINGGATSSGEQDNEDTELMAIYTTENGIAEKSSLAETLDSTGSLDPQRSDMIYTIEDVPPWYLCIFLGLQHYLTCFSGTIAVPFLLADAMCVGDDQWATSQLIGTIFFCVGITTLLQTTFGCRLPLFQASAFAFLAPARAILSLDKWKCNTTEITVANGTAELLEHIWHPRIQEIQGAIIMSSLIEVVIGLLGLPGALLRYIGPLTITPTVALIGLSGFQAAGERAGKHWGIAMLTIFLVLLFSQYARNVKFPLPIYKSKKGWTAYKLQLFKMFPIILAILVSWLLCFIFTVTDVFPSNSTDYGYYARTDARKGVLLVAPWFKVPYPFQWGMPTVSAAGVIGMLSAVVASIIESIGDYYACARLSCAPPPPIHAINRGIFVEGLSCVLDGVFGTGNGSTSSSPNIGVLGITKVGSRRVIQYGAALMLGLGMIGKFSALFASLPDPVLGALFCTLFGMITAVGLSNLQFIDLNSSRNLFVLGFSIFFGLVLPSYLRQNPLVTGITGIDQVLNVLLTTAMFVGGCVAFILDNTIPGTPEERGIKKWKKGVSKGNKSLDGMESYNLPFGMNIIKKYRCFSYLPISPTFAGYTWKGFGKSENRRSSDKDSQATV
# Test Protocol: L-[14C]ascorbic acid radiotracer uptake in Xenopus oocytes expressing rat SVCT2
# Type: cell-based
Recorded Endpoint: inhibition of SVCT2-mediated L-[14C]ascorbic acid uptake (in words)

INSERT INTO assay_data (compound, result) VALUES
  ('O=C(CCc1ccc(O)cc1)c1c(O)cc(O)cc1O[C@@H]1O[C@H](CO)[C@@H](O)[C@H](O)[C@H]1O [phlorizin]', 'modest inhibition'),
  ('CC(=O)Oc1ccccc1C(=O)O [aspirin, acetyl-salicylic acid]', 'modest inhibition'),
  ('O=c1[nH]c(=O)c2[nH]cnc2[nH]1 [xanthine]', 'modest inhibition');
